measured_target: human KHK-C (Homo sapiens (Human), UniProt P50053)
assay_details: KHK Biochemical Assay (IC50), ADP-Glo, KHK-C
run_conditions: ADP-Glo; average of at least two separate assays
assay_metric: IC50 (nM)
All answers are understood in nM, so give the number only.

Study these solved cases before continuing.
>>> df
                                   compound  measured_result
0  C[C@H]1[C@H](O)CN1c1nc(-c2ccc3c(c2)OCC32NC(=O)N(C)C2=O)c2c(n1)C(F)(F)CC2 (stereo partly shown)              0.2
1  C[C@H]1CCN1c1nc2c(c(-c3ccc4c(c3)OCCNC4=O)n1)CCC2              6.7
2  C[C@H]1CCN1c1nc(-c2ccc3c(c2)OCCNC3=O)c2c(n1)C(F)(F)CC2              0.8

Attention now shifts to the item below.
Memo: `C[C@H]1CCN1c1nc2c(c(-c3ccccc3O)n1)CCC2` , reported IC50: 633

====

measured_target: KHK-C expressed in NRK-52E cells (Homo sapiens (Human))
assay_details: KHK-C Cell-based Assay (EC50), NRK CTG, fructose-mediated ATP-depletion
pEC50: −log10 of the molar value.
Quick rule: pEC50 of at least 7 means criterion met, below that means criterion not met.

>>> print(df.to_string())
                                   molecule     discrete_label
0  C[C@H]1CCN1c1nc2c(c(-c3cc4c(C(=O)O)cccc4[nH]3)n1)CCC2 [Example 155]  criterion not met
1  C[C@H]1CCN1c1nc2c(c(-c3ccc4c(c3)CC(CC(=O)O)C4)n1)CCC2 (stereo partly shown) [Example 134]  criterion not met
2  C[C@H]1[C@H](O)CN1c1nc(-c2ccc3c(c2)CC[C@@]32COC(=O)N2)c2c(n1)C(F)(F)CC2 (single isomer, unassigned) [Example 476]      criterion met
3  C[C@@H]1N(c2nc(-c3ccc4c(c3)OC[C@@]43COC(=O)N3)c3c(n2)C(F)(F)CC3)C[C@@]1(C)O [Example 829]      criterion met
4  C[C@H]1[C@H](O)CN1c1nc2c(c(-c3ccc(C(N)=O)c(Cl)c3)n1)CCC2 [Example 308]  criterion not met
5  CS(=O)(=O)c1cccc(-c2nc(N3CCC[C@@H]3C#N)nc3c2CCC3)c1 [Example 713]  criterion not met

Then there is this molecule:
Is it the case that C[C@H]1CCN1c1nc(-c2ccc3c(c2)OCCNC3=O)c2c(n1)C(F)(F)CC2 [Example 165] has pEC50 reaching or exceeding 7?
criterion met

====

measured_target: KHK-C expressed in NRK-52E cells (Homo sapiens (Human))
assay_details: KHK-C Cell-based Assay (EC50), NRK CTG, fructose-mediated ATP-depletion
The reader will find reported log10 EC50 values listed item by item below.
Note the log scale: values are log10 of EC50 expressed in nM.

>>> print(df.to_string())
                                   compound                           measured_target  measured_result
0  CCOc1cc(-c2nc(N3C[C@@H](O)[C@@H]3C)nc3c2CCC3(F)F)ccc1C(N)=O  KHK-C expressed in NRK-52E cells (Homo sapiens (Human))             1.66

Memo: C[C@H]1CCN1c1nc2c(c(-c3cccc([C@H]4C[C@@H]4C#N)c3)n1)CCC2 (stereo in doubt) , reported log10 EC50: 2.74

Memo: `C[C@H]1CCN1c1nc2c(c(-c3ccc(OC(F)(F)F)c(S(N)(=O)=O)c3)n1)CCC2` , reported log10 EC50: 2.40

Memo: `C[C@H]1CCN1c1nc2c(c(-c3ccc(CN4CCC4)cc3)n1)CCC2` , reported log10 EC50: 1.88

Memo: `C[C@H]1[C@H](O)CN1c1nc(-c2ccc3c(c2)CC[C@]32NC(=O)N(CCO)C2=O)c2c(n1)C(F)(F)CC2` , reported log10 EC50: 0.81

====

measured_target: KHK-C expressed in NRK-52E cells (Homo sapiens (Human), UniProt P50053)
Sequence (P50053 whole entry): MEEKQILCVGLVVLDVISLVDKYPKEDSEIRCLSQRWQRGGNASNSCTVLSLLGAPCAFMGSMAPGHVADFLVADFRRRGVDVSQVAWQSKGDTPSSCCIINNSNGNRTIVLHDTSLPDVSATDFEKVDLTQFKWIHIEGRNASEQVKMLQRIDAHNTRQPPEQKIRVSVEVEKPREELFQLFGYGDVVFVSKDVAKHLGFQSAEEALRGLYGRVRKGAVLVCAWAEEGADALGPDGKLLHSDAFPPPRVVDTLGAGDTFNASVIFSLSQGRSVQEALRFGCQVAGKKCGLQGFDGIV
assay_details: KHK-C Cell-based Assay (EC50), NRK CTG, fructose-mediated ATP-depletion
The reader will find reported pEC50 values listed item by item below.
# pEC50 is unitless: minus log10 of the molar concentration; print number only

Study these solved cases before continuing.
                                   compound  measured_result
0  C[C@H]1[C@H](F)CN1c1nc2c(c(-c3cccc(C4CC4C(=O)O)c3)n1)CCC2 (stereo partly shown) [Example 48]             7.11
1  C[C@H]1[C@H](O)CN1c1nc2c(c(-c3cccc(CNS(C)(=O)=O)c3)n1)CCC2 [Example 285]             7.08
2  C[C@H]1CCN1c1nc2c(c(-c3ccc(C(O)CF)cc3)n1)CCC2 (stereo partly shown) [Example 257]             6.73

Attention now shifts to the item below.
Reading of pEC50 for C[C@H]1[C@H](O)CN1c1nc(-c2cccc(CN(C)S(C)(=O)=O)c2)c2c(n1)C(F)(F)CC2 [Example 462] with KHK-C expressed in NRK-52E cells (Homo sapiens (Human), UniProt P50053): 8.04

====

The reader will find reported IC50 values listed item by item below.
measured_target: human KHK-A (Homo sapiens (Human), UniProt P50053)
Sequence (P50053 other isoform, or with tags, fused parts or gaps): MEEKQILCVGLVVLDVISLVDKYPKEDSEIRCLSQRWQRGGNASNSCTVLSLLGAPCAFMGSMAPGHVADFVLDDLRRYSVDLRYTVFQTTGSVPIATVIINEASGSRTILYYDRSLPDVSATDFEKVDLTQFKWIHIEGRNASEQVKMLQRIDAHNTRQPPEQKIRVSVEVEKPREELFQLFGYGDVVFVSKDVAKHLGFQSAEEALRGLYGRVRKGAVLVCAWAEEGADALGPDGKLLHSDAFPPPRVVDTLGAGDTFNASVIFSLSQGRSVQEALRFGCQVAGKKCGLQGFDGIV
assay_details: KHK Biochemical Assay (IC50), ADP-Glo, KHK-A
run_conditions: ADP-Glo; average of at least two separate assays
All answers are understood in nM, so give the number only.

Study these solved cases before continuing.
                                   compound  assay_metric  measured_result
0  C[C@H]1CCN1c1nc2c(c(-c3ccnnc3)n1)CCC2 [Example 343]          IC50              357
1  C[C@H]1CCN1c1nc2c(c(-c3ccc4[nH]c(=O)[nH]c4c3)n1)CCC2 [Example 247]          IC50               50
2  C[C@H]1CCN1c1nc2c(c(-c3ccc(C4CNC4)cc3)n1)CCC2 [Example 233]          IC50             55.7
3  C[C@H](O)C(=O)NCc1cccc(-c2nc(N3CC[C@@H]3C)nc3c2CCC3)c1 [Example 230]          IC50             96.7
4  C[C@H]1CCN1c1nc2c(c(-c3ccc4c(c3)CCO4)n1)CCC2 [Example 274]          IC50              204
5  C[C@H]1CCN1c1nc2c(c(-c3ccc(C4(N)CCC4)cc3)n1)CCC2 [Example 312]          IC50              1.2
6  C[C@H]1CCN1c1nc2c(c(-c3ccc(C4(O)COC4)cc3)n1)CCC2 [Example 127]          IC50             99.6

Attention now shifts to the item below.
Memo: COc1ccc(-c2nc(N3CC[C@@H]3C)nc3c2CCC3)cc1S(=N)(=O)c1ccc(C#N)cc1C (some centres unmarked) [Example 846] , reported IC50: 33.6

====

measured_target: human KHK-C (Homo sapiens (Human))
assay_details: KHK Biochemical Assay (IC50), ADP-Glo, KHK-C
run_conditions: ADP-Glo; average of at least two separate assays
For each record, check the reported IC50: if it is below 70 nM write Met, else write Not met.

In [3]: df
Out[3]:
                                   compound  discrete_label
0  C[C@H]1[C@H](O)CN1c1nc2c(c(-c3ccc(C(N)=O)cc3)n1)CCC2 [Example 197]             Met
1  C[C@H]1CCN1c1nc2c(c(-c3ccc4[nH]ncc4c3)n1)CCC2 [Example 39]         Not met
2  Cc1nc2cc(-c3nc(N4CC[C@@H]4C)nc4c3CCC4)ccc2s1 [Example 110]         Not met
3  C[C@H]1CCN1c1nc2c(c(-c3ccc(C4(O)COC4)cc3)n1)CCC2 [Example 127]             Met

Then there is this compound:
Is IC50 strictly under 70 nM for the entry C[C@H]1c2ccccc2CN1c1nc2c(c(-c3ccc(C(N)=O)cc3)n1)CCC2 [Example 167] ?
Not met

====

measured_target: human KHK-C (Homo sapiens (Human))
assay_details: KHK Biochemical Assay (IC50), ADP-Glo, KHK-C
run_conditions: ADP-Glo; average of at least two separate assays
The reader will find reported IC50 values listed item by item below.
All answers are understood in µM, so give the number only.

>>> df
                            chemical_string  unit_text  measured_result
0  C[C@H]1[C@H](O)CN1c1nc2c(c(-c3ccc(CNS(C)(=O)=O)cc3)n1)CCC2         µM           0.0586
1  C[C@H]1CCN1c1nc2c(c(-c3ccc4c(c3)NC(=O)C4(C)C)n1)CCC2         µM            0.646
2  C[C@H]1[C@H](O)CN1c1nc(-c2ccc(C(N)=O)c(OC(F)(F)F)c2)c2c(n1)C(F)(F)CC2         µM           0.0213

Memo: `C[C@H]1CCN1c1nc2c(c(-c3cnc(CN)s3)n1)CCC2` , reported IC50: 0.0172

Memo: `C[C@H]1CCN1c1nc2c(c(-c3cccc(CN)c3)n1)CCC2` , reported IC50: 0.0185

Memo: `C[C@H]1[C@H](O)CN1c1nc2c(c(-c3cccc(S(N)(=O)=O)c3)n1)CCOC2` , reported IC50: 0.753

Memo: `C[C@H]1CCN1c1nc2c(c(-c3cccc(CN4CCCC4)c3)n1)CCC2` , reported IC50: 0.0227

Memo: `C[C@H]1CCN1c1nc2c(c(-c3cc4c(C(N)=O)cccc4[nH]3)n1)CCC2` , reported IC50: 0.082
